Each recorded value in this set is attributed to PubChem BioAssay AID2551.

tested_on: Nuclear receptor ROR-gamma (Mus musculus)
assay_overview: qHTS for inhibitors of ROR gamma transcriptional activity; also: nearly all actives have a fitted effect of over 60% in size
particulars: Drosophila S2 Gal4-RORgamma UAS-luciferase reporter, 20 h; series mostly up to 53.6 µM
About 17,000 (5.5%) of roughly 310,000 compounds were called active. Roughly 11% stayed inconclusive and do not appear here. Calls follow the shape of the dose curve; as a rule, active = well fitted inhibition curve with a large enough effect; inconclusive = small, poorly fitted or top-dose-only effect, or effect the other way; inactive = no such curve, though single readings can be large or run the other way. What follows is part of a selection rich in actives, with near analogues and random picks from the rest.
Classes used: true (1) (active), false (0) (inactive)

molecule	assigned_class
c1ccc(-n2nnnc2-c2cccnc2)cc1	false (0)
CCn1c(C)cc(=O)cc1-c1ccc(Cl)cc1	false (0)
O=C(c1c(F)cccc1Cl)N1CCN(c2ccccn2)CC1	false (0)
COc1cc(C(=S)NC2CCCCC2)ccc1O	false (0)
Cc1ccc(CCNC(=O)c2ccc3nc4ccccc4c(=O)n3c2)cc1	false (0)
Cn1c(CO)cnc1SCc1ccccc1	false (0)
CCC(CCC(C)C1CCC2C3CC=C4CC(O)CC[C@@]4(C)C3CC[C@@]12C)C(C)C (stereo not given in full)	false (0)
COC(=O)c1ccc(CNC(=O)c2ccc3oc(C(C)C)nc3c2)cc1	false (0)
CC1CC(C)CN(C(=O)C2CC(=O)N(c3ccc(F)cc3)C2)C1 (stereo not given)	false (0)
CC(=O)Nc1ccc(S(=O)(=O)N2CCC(C(=O)N[C@@H](Cc3ccccc3)C(=O)O)CC2)cc1	false (0)
COc1cccc(CSc2nc3nc(C)cc(C)n3n2)c1	false (0)
COCCOC(=O)c1[nH]c2c(c1C)C(=O)CC(c1ccc(OC)cc1)C2 (stereo not given)	false (0)
COc1ccc(C2=NN(C(C)=O)C(c3ccccc3)C2)cc1 (stereo not given)	false (0)
CSc1c(SCc2ccccc2)cnn(Cc2ccccc2)c1=O	true (1)
COc1ccc(Cl)cc1C(=O)NNC(=S)NC1CCCC1	true (1)
COc1cc(/C=N\NC(=O)c2nonc2N)c(OC)cc1Br	false (0)
O=C(/C=C\NCC(=O)c1ccccc1)c1ccccc1	false (0)
CCN(CC)S(=O)(=O)c1ccc(N2CC(C(=O)NCc3cccnc3)CC2=O)cc1 (stereo not given)	false (0)
COc1ccc(C2C3=C(CCCC3=O)N(CC(=O)O)C3=C2C(=O)CCC3)cc1	false (0)
CCOc1c2ccc(C(=O)NCc3ccc4c(c3)OCO4)cc2nn1C	false (0)
Cc1cc(C)c([N+](=O)[O-])cc1-c1ccc(/C=N/NC(=O)c2nonc2N)o1	true (1)
COc1ccc(NC(=O)C2C3CCC(O3)C2C(=O)O)cc1OC (stereo not given)	false (0)
COc1ccc(NC(=O)CSCc2ccc([N+](=O)[O-])cc2)cc1OC	false (0)
CCc1nnc(NC(=O)CSCc2cc(=O)n3cc(C)sc3n2)s1	false (0)
CSc1nc2ccccc2c(=O)n1Cc1ccc(F)cc1	false (0)
S=c1nc2ccccc2c2nc(-c3cccnc3)[nH]n12	true (1)
Cc1cccc(NC(=S)N2CCC(c3nc4ccccc4s3)CC2)c1	true (1)
N#Cc1ccccc1NC(=O)c1ccc2c(c1)OCO2	false (0)
N[C@@H](Cc1ccccc1)C(=O)N1CCC(C(=O)NCC(=O)Nc2ccc(F)cc2)CC1	false (0)
Clc1cccc(N=C2NN=C(c3ccc4c(c3)OCCO4)CS2)c1	false (0)
COc1ccc(C(C)NC(=S)NC2CCCCC2)cc1OC (stereo not given)	true (1)
Cc1nn(C)cc1S(=O)(=O)N1CCN(c2ccc(F)cc2)CC1	false (0)
O=C(NC(Cc1ccc(O)cc1)C(=O)O)/C(=C/c1ccccc1)NC(=O)c1ccccc1 (stereo not given)	false (0)
COc1ccc(Cl)cc1C(=O)NNC(=O)c1nc2nc(C)cc(C)n2n1	false (0)
CS(=O)(=O)N(CC(=O)N1CCN(Cc2ccccc2)CC1)c1ccc2c(c1)OCCO2	false (0)
CCOc1ccc2[nH]c(=O)c(CN(CCCO)S(=O)(=O)c3ccc(F)cc3)cc2c1	false (0)
CC(C)(C)n1nnnc1C(c1ccccc1F)N1CCN(C(=O)c2ccco2)CC1 (stereo not given)	false (0)
c1ccc(CN2CCC(N=C3NN=C(c4ccc5c(c4)OCCO5)CS3)CC2)cc1	true (1)
COc1cccc(CNC(=O)CCCC(=O)Nc2cccc([N+](=O)[O-])c2)c1	false (0)
C=C1C(=CC=C2CCC[C@@]3(C)[C@@H]2CC[C@H]3[C@H](C)CCCC(C)C)C[C@@H](O)C[C@@H]1O	true (1)
COc1ccc(Cl)cc1C(=O)NCC#N	false (0)
O=C(c1ccccc1)N1N=C(c2ccccc2O)CC1c1ccc(Br)cc1 (stereo not given)	false (0)
Cc1ccc(N/C=C/C(=O)c2ccccc2)cc1C	true (1)
Cc1ccc(NC(=O)C2CCN(S(=O)(=O)c3ccc4c(c3)NC(=O)CO4)CC2)cc1C	false (0)
COc1ccc2oc(=N)c(C(=O)Nc3ccc(Br)cc3)cc2c1	false (0)
